Molecular target: SIRT1 (Homo sapiens, UniProt Q96EB6)
Sequence (Q96EB6 whole entry): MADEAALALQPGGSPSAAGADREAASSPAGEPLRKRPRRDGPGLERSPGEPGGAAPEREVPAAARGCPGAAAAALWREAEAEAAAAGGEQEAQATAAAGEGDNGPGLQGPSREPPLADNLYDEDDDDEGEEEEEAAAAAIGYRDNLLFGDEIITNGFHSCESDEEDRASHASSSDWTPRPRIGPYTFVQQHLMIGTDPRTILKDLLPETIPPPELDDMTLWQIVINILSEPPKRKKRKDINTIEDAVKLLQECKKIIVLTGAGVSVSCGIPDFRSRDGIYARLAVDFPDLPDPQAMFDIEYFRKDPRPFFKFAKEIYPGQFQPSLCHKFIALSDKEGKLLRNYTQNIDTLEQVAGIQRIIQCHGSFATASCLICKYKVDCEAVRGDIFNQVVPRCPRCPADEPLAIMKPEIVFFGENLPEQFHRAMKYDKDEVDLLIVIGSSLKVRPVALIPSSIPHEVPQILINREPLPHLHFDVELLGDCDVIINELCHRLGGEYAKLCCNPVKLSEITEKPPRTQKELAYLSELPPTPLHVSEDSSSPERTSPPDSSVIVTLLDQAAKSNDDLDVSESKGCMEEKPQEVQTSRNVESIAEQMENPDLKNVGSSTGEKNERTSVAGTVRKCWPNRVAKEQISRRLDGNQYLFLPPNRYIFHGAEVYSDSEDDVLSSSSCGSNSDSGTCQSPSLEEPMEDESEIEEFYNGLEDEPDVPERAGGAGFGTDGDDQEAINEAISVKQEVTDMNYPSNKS
Experiment: TAMRA based mass spectrometry assay of SIRT1 activity
Type: biochemical
Conditions: TAMRA assay; percent maximum fold activation; read-out: TAMRA % Fold Act

{"columns": ["STRUCTURE NOTATION", "Emax"],
 "data": [
  ["Cc1ccc(NC(=O)c2cnc3ccc(-c4ccccc4C(F)(F)F)nn23)nn1", "≥ 350%"],
  ["O=C(Nc1cnn2ccc(-c3ccccc3C(F)(F)F)nc12)c1ncccc1F", "≥ 350%"],
  ["O=C(Nc1cnc2ccc(-c3ccccc3F)nn12)c1ccncn1", "< 350%"],
  ["Cc1ccc(NC(=O)c2c(C)nc3ccc(-c4ccccc4Br)nn23)nn1", "≥ 350%"],
  ["Cc1cc(C(=O)Nc2cnc3ccc(-c4ccccc4C(F)(F)F)nn23)nc(C)n1", "≥ 350%"],
  ["O=C(Nc1cnc2ccc(-c3ccccc3C(F)(F)F)nn12)c1ccnc(CN2CCCC2)c1", "< 350%"],
  ["O=C(Nc1cnc2ccc(-c3ccccc3Cl)nn12)c1ccccn1", "≥ 350%"],
  ["Cc1nc2ccc(-c3ccccc3OC[C@H](O)CO)nn2c1C(=O)Nc1ccncn1", "< 350%"],
  ["Cc1nccc(NC(=O)c2c(C)nc3c(C)cc(-c4ccccc4C(F)(F)F)nn23)n1", "≥ 350%"],
  ["Cc1cc(NC(=O)c2cnc3c(C)c(C)c(-c4ccccc4C(F)(F)F)nn23)cc(C)n1", "≥ 350%"],
  ["Cc1nc2ccc(-c3ccccc3C(F)(F)F)nn2c1C(=O)Nc1ccnn1C", "< 350%"],
  ["COc1ccc(NC(=O)c2c(C)nc3ccc(-c4ccccc4C)nn23)nn1", "≥ 350%"],
  ["Cc1cc(NC(=O)c2cnc3ccc(-c4ccccc4Cl)nn23)cc(C)n1", "≥ 350%"],
  ["O=C(Nc1ncccn1)c1cnn2ccc(-c3ccccc3C(F)(F)F)nc12", "≥ 350%"],
  ["Cc1ncccc1NC(=O)c1c(C)nn2ccc(-c3ccccc3Br)nc12", "≥ 350%"],
  ["Cc1nc2ccc(-c3ccccc3C(F)(F)F)nn2c1C(=O)Nc1cnncn1", "≥ 350%"],
  ["Cc1ccnc(NC(=O)c2c(C)nc3ccc(-c4ccccc4OC[C@H](O)CO)nn23)c1", "≥ 350%"],
  ["Cc1cnc(C(=O)Nc2c(C)nc3ccc(-c4ccccc4Cl)nn23)s1", "< 350%"],
  ["Cc1nc(NC(=O)c2cnc3ccc(-c4ccccc4C(F)(F)F)nn23)sc1C", "≥ 350%"],
  ["Cc1ccc(NC(=O)c2c(C)nn3ccc(-c4ccccc4C(F)(F)F)nc23)nc1", "≥ 350%"],
  ["CC(C)c1nccc(C(=O)Nc2cnn3ccc(-c4ccccc4OC(F)(F)F)nc23)n1", "≥ 350%"],
  ["Cc1nc(C(=O)Nc2cnc3ccc(-c4ccccc4C(F)(F)F)nn23)cs1", "≥ 350%"],
  ["Cc1cnc(C(=O)Nc2cnc3ccc(-c4ccccc4OC(F)(F)F)nn23)s1", "≥ 350%"],
  ["Cc1ncccc1NC(=O)c1cnn2ccc(-c3ccccc3OC(F)(F)F)nc12", "< 350%"],
  ["Cc1cncc(NC(=O)c2cnn3ccc(-c4ccccc4OC(F)(F)F)nc23)c1", "≥ 350%"],
  ["Cc1cc(NC(=O)c2cnc3ccc(-c4ccccc4OC[C@H](O)CO)nn23)nc(C)n1", "≥ 350%"],
  ["Cc1nc(C(=O)Nc2c(C)nc3ccc(-c4ccccc4Cl)nn23)c(C)s1", "< 350%"],
  ["Cc1ccc(NC(=O)c2cnc3ccc(-c4ccccc4OC(F)(F)F)nn23)nn1", "≥ 350%"],
  ["COc1nccc(NC(=O)c2cnn3ccc(-c4ccccc4OC(F)(F)F)nc23)n1", "≥ 350%"],
  ["Cc1ccc(NC(=O)c2cnn3ccc(-c4ccccc4OC(F)(F)F)nc23)nc1", "< 350%"],
  ["Cc1cc(-c2ccccc2C(F)(F)F)nn2c(C(=O)Nc3ccnc(O[C@H]4CCOC4)n3)cnc12", "≥ 350%"],
  ["Cc1cnc(NC(=O)c2c(C)nc3ccc(-c4cccc(OC[C@H](O)CO)c4)nn23)s1", "< 350%"],
  ["N#Cc1ccccc1-c1ccc2ncc(NC(=O)c3cccc(N4CCOCC4)n3)n2n1", "≥ 350%"],
  ["N#Cc1ccccc1-c1ccc2ncc(NC(=O)c3cnccn3)n2n1", "< 350%"]
]}
